# System: T-47D breast
# run description: NCI-60 one-dose screen, 48 h
# measurement parameters: 10 µM unless noted
# Method: Growth inhibition of the T-47D human tumor cell line is measured as a screen for anti-cancer activity. Cells are grown in 96 well plates and exposed to the test compound for 48 hours. Compounds are tested at a single concentration, which is 10^-5 M for most compounds. The reported endpoint is percent growth (GI% or GIPRCNT), where numbers from 0 - 100% represent growth inhibition, and numbers from -100% - 0 represent cell death. For example, a value of 40 represents 60% growth inhibition. […]
This is part of a sample that, as a whole, favours compounds with a hit. Of some 83,000 tested, about 20% had one in any assay. Activity calls are given as the source filed them. The calls were made as follows: active = growth percent below 10; inactive = the rest.
Hello, when you answer, please use one of the following outcomes: active, inactive

Example cases with answers are listed next.
[in] # fetch the recorded call for "Cc1[nH]nc2ccc(-c3nc4cnc(N5CCN(C)CC5)cn4c3Nc3ccc(F)cc3Br)cc12" here
[out] inactive

[in] # fetch the recorded call for "COc1ccc(-c2ccnc3c(C#N)c(Nc4ccccc4)nn23)cc1OC" here
[out] inactive

[in] # fetch the recorded call for "Brc1cccc(/C=N/Nc2nc(N/N=C/c3cccc(Br)c3)nc(N3CCOCC3)n2)c1" here
[out] inactive

Next, consider the following compound.
[in] # fetch the recorded call for "O=C(Nc1cc(Cl)cc(Cl)c1)Nc1nc2ccc([N+](=O)[O-])cc2s1" here
[out] active

----------
molecules and their reported growth
# Tested on: U251 CNS
# run description: NCI-60 one-dose screen, 48 h (100 = growth as untreated, 0 = no growth, -100 = all killed)
# measurement parameters: 10 µM unless noted
The panel holds about 83,000 compounds, 20% with a hit somewhere; the sample as a whole holds those more often.
Please give a number only; it is taken to be in %.

Recorded results for 5 molecules are shown here.
[in] Could you tell me which growth is on file for "COc1ccc(N2CCN(C(=O)CSc3ccc(-c4nc5cc(C)c(C)cc5[nH]4)cn3)CC2)cc1" ?
[out] 95.9

[in] Could you tell me which growth is on file for "C#C[C@]1(O)CC[C@H]2[C@@H]3CC=C4c5sc(Nc6cc(Cl)ccn6)nc5CC[C@]4(C)[C@H]3CC[C@@]21C" ?
[out] 15.1

[in] Could you tell me which growth is on file for "c1cncc(-c2cn3nc(-c4c[nH]c5ccccc45)sc3n2)c1" ?
[out] 69.9

[in] Could you tell me which growth is on file for "O=S(=O)(Nc1cc(Cl)cc(Cl)c1)c1ccc(-c2cnc(C3CC3)o2)cc1" ?
[out] 37.4

[in] Could you tell me which growth is on file for C/C(=C(/C)C1CC1CCN(C(=O)c1ccccn1)S(=O)(=O)c1ccc(C)cc1)C1CCCCC1 (centres undefined) ?
[out] 103

More entries:
[in] Could you tell me which growth is on file for "COc1cnc2c(c1)C(=O)c1c-2n(CCCNCC2CC2)c(=O)c2cc(F)ccc12" ?
[out] -50.4

----------
# Tested on: SNB-19 CNS
# run description: NCI-60 one-dose screen, 48 h (100 = growth as untreated, 0 = no growth, -100 = all killed)
# measurement parameters: 10 µM unless noted
Compounds without any hit were thinned out: in the full panel of roughly 83,000, 20% have a hit.
reported metric: growth (%)
Please give a number only; it is taken to be in %.

[in] Could you tell me which growth is on file for "C=CCn1c(SCC(=O)Nc2cccc(C(=O)/C=C/c3ccc(C)cc3)c2)nc2ccccc2c1=O" ?
[out] 81.7

[in] Could you tell me which growth is on file for "C=C1C(=O)O[C@@H]2C[C@@H](C)/C=C\C(=O)[C@](C)(OC(C)=O)C[C@H](OC(=O)/C(C)=C\C)[C@@H]12" ?
[out] 60.1

[in] Could you tell me which growth is on file for "O=C(Nc1cc(F)cc2cccnc12)c1cnc(N2CCOCC2)cn1" ?
[out] 88.6

[in] Could you tell me which growth is on file for "C=C(C)C(=O)O[C@H]1C[C@@]2(C)OC(=CC2=O)[C@H](C)[C@H](O)[C@H]2OC(=O)C(=C)[C@@H]21" ?
[out] 106

[in] Could you tell me which growth is on file for "Clc1ccc(-c2csc(N/N=C/c3nc4ccccc4n3C3CC3)n2)cc1" ?
[out] 98.3

[in] Could you tell me which growth is on file for "O=C(CSc1nnc(-c2ccc(Cl)cc2)n1-c1ccccc1)Nc1ccc(F)cc1" ?
[out] 59.7
